Tested on: L1210 leukemia ip in BDF1 mice, survival T/C
Experiment: NCI In Vivo Anticancer Drug Screen. Data for tumor model L1210 Leukemia (intraperitoneal) in B6D2F1 (BDF1) mice
Conditions: endpoint: mean survival time; dose: 200.0 mg/kg/injection; schedule: Q01DX009 (ip); vehicle: other; higher = longer survival
Toxic doses and inconclusive results are not listed.
Overview of recorded T/C for various compounds

>  <Compound>
COc1cc([N+](=O)[O-])ccc1C

>  <T/C>
98 % of control

$$$$
>  <Compound>
COC(/C=N/O)c1ccccc1 (stereo not given)

>  <T/C>
101 % of control

$$$$
>  <Compound>
CC1CC=CCC1COC(OCC1CC=CCC1C)C1CC=CCC1C (stereo not given)

>  <T/C>
98 % of control

$$$$
>  <Compound>
CCCCCCCCCCCCCCCCCC(CCCCCCCCCCCCCCCCC)=NNC(N)=S

>  <T/C>
89 % of control

$$$$
>  <Compound>
OC(OC/C(I)=C(/I)COC(O)C(Cl)(Cl)Cl)C(Cl)(Cl)Cl (stereo not given)

>  <T/C>
92 % of control

$$$$
